B1: GFOD1 (parent)
chain: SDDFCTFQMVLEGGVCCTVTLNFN

Variants of: B1
Assay: protein stability index of a GFP-peptide fusion (GPS, HEK-293T) (PSI 1-6); higher = more stable;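 also: lentivirally expressed fusions sorted by FACS into six bins by GFP to DsRed ratio, PSI derived from sequencing read proportions per bin multiplied by bin number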
Conditions: c terminus: a fixed tail appended
// reported protein stability index for each item listed
Reply with the value as a number alone.

Past entries and their recorded results:
C17H | 2.13
C17D | 1.8
C5F | 2.08
L21Q | 1.93
V19Q | 1.75

For the variant `G13K` , give its measured protein stability index value.
3.14

Using known records, supply protein stability index for `V15I`
1.72

Determine from records and report protein stability index for `V10W`
3.71

Provide one value: measured protein stability index of `V19N`
2.07

Supply reported protein stability index belonging to this variant: `M9D`
2.18
